This collection of values is drawn from ChEMBL document CHEMBL1134012.

Assay system Urokinase-type plasminogen activator (Homo sapiens); read-out recorded as pKi.
By convention, pKi is the negative base-10 log of a molar concentration.

Smiles Str	Number
CSc1sc(C(=N)N)cc1-c1csc(Nc2ccc(Cl)cc2C)n1	6.55
CSc1sc(C(=N)N)cc1-c1csc(Nc2ccc(/N=N/c3ccccc3)cc2)n1	6.74
COc1cc(Nc2nc(-c3cc(C(=N)N)sc3SC)cs2)cc(OC)c1OC	6.80
CSc1sc(C(=N)N)cc1-c1csc(NCCN2CCOCC2)n1	5.85

Q: Consider the compound CSc1sc(C(=N)N)cc1-c1csc(N2CCN(c3ccccc3F)CC2)n1 and give its measured pKi.
Ans: 5.51

Q: Consider the compound CSc1sc(C(=N)N)cc1-c1csc(Nc2ccc(Oc3ccc(Cl)cc3)cc2)n1 and give its measured pKi.
Ans: 6.96

Q: Consider the compound CSc1sc(C(=N)N)cc1-c1csc(Nc2cccc(Cl)c2C)n1 and give its measured pKi.
Ans: 6.36

Q: Consider the compound CSc1sc(C(=N)N)cc1-c1csc(Nc2ccc(Nc3ccccc3)cc2)n1 and give its measured pKi.
Ans: 7.15

Q: Consider the compound CSc1sc(C(=N)N)cc1-c1csc(NCCCc2ccccc2)n1 and give its measured pKi.
Ans: 6.46

Q: Consider the compound CSc1sc(C(=N)N)cc1-c1csc(Nc2ccc(Cc3ccccc3)cc2)n1 and give its measured pKi.
Ans: 6.74

----------
Target: Urokinase-type plasminogen activator (Homo sapiens, UniProt P00749)
Assay: In vitro inhibitory activity against Urokinase-type plasminogen activator (microPa)
In this section we review reported Ki values for a set of molecules.

Smiles Str	Assay Target	Ki
CSc1sc(C(=N)N)cc1-c1csc(NCc2ccc(C)cc2)n1	Urokinase-type plasminogen activator (Homo sapiens, UniProt P00749)	0.64 µM
CSc1sc(C(=N)N)cc1-c1csc(Nc2cccc(C)c2C)n1	Urokinase-type plasminogen activator (Homo sapiens, UniProt P00749)	0.28 µM
CSc1sc(C(=N)N)cc1-c1csc(Nc2ccccc2Br)n1	Urokinase-type plasminogen activator (Homo sapiens, UniProt P00749)	0.28 µM
CSc1sc(C(=N)N)cc1-c1csc(Nc2ccc(S(=O)(=O)N3CCCCC3)cc2)n1	Urokinase-type plasminogen activator (Homo sapiens, UniProt P00749)	0.4 µM
CSc1sc(C(=N)N)cc1-c1csc(Nc2ccccc2Cl)n1	Urokinase-type plasminogen activator (Homo sapiens, UniProt P00749)	1.46 µM

Q: Which Ki is reported with Urokinase-type plasminogen activator (Homo sapiens, UniProt P00749) for this entry: CSc1sc(C(=N)N)cc1-c1csc(Nc2c(Cl)cccc2Cl)n1 ?
Ans: 1.5 µM

Q: Which Ki is reported with Urokinase-type plasminogen activator (Homo sapiens, UniProt P00749) for this entry: CSc1sc(C(=N)N)cc1-c1csc(Nc2ccc3c(c2)OCO3)n1 ?
Ans: 0.52 µM

Q: Which Ki is reported with Urokinase-type plasminogen activator (Homo sapiens, UniProt P00749) for this entry: CSc1sc(C(=N)N)cc1-c1csc(Nc2ccc(Oc3ccc(C(F)(F)F)cn3)cc2)n1 ?
Ans: 0.91 µM

Q: Which Ki is reported with Urokinase-type plasminogen activator (Homo sapiens, UniProt P00749) for this entry: CSc1sc(C(=N)N)cc1-c1csc(Nc2ccc(Oc3ccccc3)cc2)n1 ?
Ans: 0.06 µM

Q: Which Ki is reported with Urokinase-type plasminogen activator (Homo sapiens, UniProt P00749) for this entry: CSc1sc(C(=N)N)cc1-c1csc(Nc2ccc(OCc3ccccc3)cc2)n1 ?
Ans: 0.18 µM

Q: Which Ki is reported with Urokinase-type plasminogen activator (Homo sapiens, UniProt P00749) for this entry: CSc1sc(C(=N)N)cc1-c1csc(Nc2cccc3ccccc23)n1 ?
Ans: 0.5 µM
